ASSAY PROTOCOL: in vitro
MEASUREMENT CONTEXT: human
Catalogue of IC50 at 48 h readings, one per entry.

COc1ccc2c3c([nH]c2c1)-c1nc2ccccc2c(=O)n1CC3 = > 200 µM
C[C@@H]1O[C@@H](OC[C@H]2O[C@@H](OCCc3c[nH]c4ccccc34)[C@H](O)[C@@H](O)[C@@H]2O)[C@H](O)[C@H](O)[C@H]1O = > 200 µM
CCc1cc2nccc3c4ccc(OC)cc4n(c1=O)c23 = > 200 µM
OC[C@H]1O[C@@H](OCCc2c[nH]c3ccccc23)[C@H](O)[C@@H](O)[C@@H]1O [Compound 1, 2-(indol-3-yl)ethyl-β-D-glucopyranoside] = > 200 µM

-- ask Which IC50 at 48 h value belongs to COc1ccc2c(c1)NC(=O)[C@]2(O)CCNC(C)=O ?
-- reply 122 µM

-- ask Which IC50 at 48 h value belongs to COc1ccc2c([nH]c3c(C)nccc32)c1O[C@@H]1O[C@H](CO)[C@@H](O)[C@H](O)[C@H]1O ?
-- reply > 200 µM

-- ask Which IC50 at 48 h value belongs to COC(=O)c1nccc2c1[nH]c1cc(OC)ccc12 ?
-- reply 164 µM

---

Test system: KG1 cells
ASSAY PROTOCOL: MTT cytotoxicity assay, KG1
Assay type: cell-based, human
MEASUREMENT CONTEXT: Homo sapiens, KG-1, 48 h, Mean ± SD
Catalogue of IC50 readings, one per entry.

COc1ccc2c([nH]c3c(C)nccc32)c1O[C@@H]1O[C@H](CO)[C@@H](O)[C@H](O)[C@H]1O = 44.5 µM

-- ask Missing value: IC50, KG1 cells, entry C[C@@H]1O[C@@H](OC[C@H]2O[C@@H](OCCc3c[nH]c4ccccc34)[C@H](O)[C@@H](O)[C@@H]2O)[C@H](O)[C@H](O)[C@H]1O . Fill in?
-- reply 60.2 µM

-- ask Missing value: IC50, KG1 cells, entry COc1ccc2c3c([nH]c2c1)-c1nc2ccccc2c(=O)n1CC3 . Fill in?
-- reply 88.1 µM

-- ask Missing value: IC50, KG1 cells, entry COC(=O)c1nccc2c1[nH]c1cc(OC)ccc12 . Fill in?
-- reply 56.8 µM

-- ask Missing value: IC50, KG1 cells, entry CCc1cc2nccc3c4ccc(OC)cc4n(c1=O)c23 . Fill in?
-- reply 113 µM

-- ask Missing value: IC50, KG1 cells, entry COc1ccc2c(c1)NC(=O)[C@]2(O)CCNC(C)=O . Fill in?
-- reply > 200 µM

-- ask Missing value: IC50, KG1 cells, entry OC[C@H]1O[C@@H](OCCc2c[nH]c3ccccc23)[C@H](O)[C@@H](O)[C@@H]1O [Compound 1, 2-(indol-3-yl)ethyl-β-D-glucopyranoside] . Fill in?
-- reply 23.1 µM

-- ask Missing value: IC50, KG1 cells, entry COc1ccc2c3c([nH]c2c1)C=NCC3 . Fill in?
-- reply 32.6 µM

-- ask Missing value: IC50, KG1 cells, entry COc1ccc2c3c([nH]c2c1)C(C)=NCC3 . Fill in?
-- reply 46.8 µM

-- ask Missing value: IC50, KG1 cells, entry COc1ccc2c(c1)[nH]c1c(C)nccc12 . Fill in?
-- reply 62.7 µM

---

Test system: U-937 cells
ASSAY PROTOCOL: MTT cytotoxicity assay, U-937
Type: cell-based, human
MEASUREMENT CONTEXT: Homo sapiens, U-937, 48 h, Mean ± SD
METRIC: pIC50
On this scale, pIC50 is minus log10 of a concentration expressed in M (mol/L).

Solved entries:
OC[C@H]1O[C@@H](OCCc2c[nH]c3ccccc23)[C@H](O)[C@@H](O)[C@@H]1O [Compound 1, 2-(indol-3-yl)ethyl-β-D-glucopyranoside] = 4.28
COc1ccc2c(c1)NC(=O)[C@]2(O)CCNC(C)=O = 4.12
COc1ccc2c3c([nH]c2c1)C=NCC3 = 5.51
COc1ccc2c(c1)[nH]c1c(C)nccc12 = 4.64
COc1ccc2c([nH]c3c(C)nccc32)c1O[C@@H]1O[C@H](CO)[C@@H](O)[C@H](O)[C@H]1O = 4.51

-- ask Which pIC50 value belongs to C[C@@H]1O[C@@H](OC[C@H]2O[C@@H](OCCc3c[nH]c4ccccc34)[C@H](O)[C@@H](O)[C@@H]2O)[C@H](O)[C@H](O)[C@H]1O ?
-- reply 4.10

-- ask Which pIC50 value belongs to COC(=O)c1nccc2c1[nH]c1cc(OC)ccc12 ?
-- reply 4.65

---

ASSAY PROTOCOL: MTT cytotoxicity assay, HEK-293 (toxic selectivity)
MEASUREMENT CONTEXT: human, HEK-293 cells, IC50 HEK-293, MTT, Mean ± SD
METRIC: IC50 at 48 h

COc1ccc2c(c1)[nH]c1c(C)nccc12 = > 200 µM
COc1ccc2c3c([nH]c2c1)C(C)=NCC3 = 156 µM

-- ask Which IC50 at 48 h value belongs to COc1ccc2c3c([nH]c2c1)C=NCC3 ?
-- reply > 200 µM

---

Tested on: human embryonic kidney cells HEK-293
ASSAY PROTOCOL: MTT cytotoxicity assay, HEK-293 (toxic selectivity)
MEASUREMENT CONTEXT: read-out: IC50 HEK-293; MTT, 48 h, Mean ± SD
METRIC: IC50 (µM)
Report as a plain number; the unit µM is understood.

-- ask Which IC50 value belongs to COc1ccc2c3c([nH]c2c1)C(C)=NCC3 [Compound 10, protonated harmaline] ?
-- reply 132

---

System: U-937 cells
ASSAY PROTOCOL: MTT cytotoxicity assay, U-937
Format: cell-based, human
MEASUREMENT CONTEXT: Homo sapiens, U-937, 48 h, Mean ± SD
Catalogue of pIC50 readings, one per entry.
On this scale, pIC50 is minus log10 of a concentration expressed in M (mol/L).

CCc1cc2nccc3c4ccc(OC)cc4n(c1=O)c23 [Compound 11, luotonin C] = 4.30
COc1ccc2c3c([nH]c2c1)-c1nc2ccccc2c(=O)n1CC3 [Compound 12, 11-methyoxyl-rutaecarpine] = 4.26

In the following, a different compound is considered.
-- ask Which pIC50 value belongs to COc1ccc2c3c([nH]c2c1)C(C)=NCC3 [Compound 9, harmaline] ?
-- reply 4.97
